Reported Emax is given for each of the following compounds.
assay system: CFTR (F508del/MF-HBE cells) (Homo sapiens, UniProt P13569, DEL508-508)
Construct: human bronchial epithelial (HBE) cells derived from CF subjects heterozygous for F508del and a minimal function CFTR mutation (F508del/MF-HBE); endogenous in cells; host or cells: Primary human bronchial epithelial cells from CF subjects (F508del/MF genotype), differentiated at an air-liquid interface
Sequence (P13569 with tags, fused parts or gaps DEL508-508): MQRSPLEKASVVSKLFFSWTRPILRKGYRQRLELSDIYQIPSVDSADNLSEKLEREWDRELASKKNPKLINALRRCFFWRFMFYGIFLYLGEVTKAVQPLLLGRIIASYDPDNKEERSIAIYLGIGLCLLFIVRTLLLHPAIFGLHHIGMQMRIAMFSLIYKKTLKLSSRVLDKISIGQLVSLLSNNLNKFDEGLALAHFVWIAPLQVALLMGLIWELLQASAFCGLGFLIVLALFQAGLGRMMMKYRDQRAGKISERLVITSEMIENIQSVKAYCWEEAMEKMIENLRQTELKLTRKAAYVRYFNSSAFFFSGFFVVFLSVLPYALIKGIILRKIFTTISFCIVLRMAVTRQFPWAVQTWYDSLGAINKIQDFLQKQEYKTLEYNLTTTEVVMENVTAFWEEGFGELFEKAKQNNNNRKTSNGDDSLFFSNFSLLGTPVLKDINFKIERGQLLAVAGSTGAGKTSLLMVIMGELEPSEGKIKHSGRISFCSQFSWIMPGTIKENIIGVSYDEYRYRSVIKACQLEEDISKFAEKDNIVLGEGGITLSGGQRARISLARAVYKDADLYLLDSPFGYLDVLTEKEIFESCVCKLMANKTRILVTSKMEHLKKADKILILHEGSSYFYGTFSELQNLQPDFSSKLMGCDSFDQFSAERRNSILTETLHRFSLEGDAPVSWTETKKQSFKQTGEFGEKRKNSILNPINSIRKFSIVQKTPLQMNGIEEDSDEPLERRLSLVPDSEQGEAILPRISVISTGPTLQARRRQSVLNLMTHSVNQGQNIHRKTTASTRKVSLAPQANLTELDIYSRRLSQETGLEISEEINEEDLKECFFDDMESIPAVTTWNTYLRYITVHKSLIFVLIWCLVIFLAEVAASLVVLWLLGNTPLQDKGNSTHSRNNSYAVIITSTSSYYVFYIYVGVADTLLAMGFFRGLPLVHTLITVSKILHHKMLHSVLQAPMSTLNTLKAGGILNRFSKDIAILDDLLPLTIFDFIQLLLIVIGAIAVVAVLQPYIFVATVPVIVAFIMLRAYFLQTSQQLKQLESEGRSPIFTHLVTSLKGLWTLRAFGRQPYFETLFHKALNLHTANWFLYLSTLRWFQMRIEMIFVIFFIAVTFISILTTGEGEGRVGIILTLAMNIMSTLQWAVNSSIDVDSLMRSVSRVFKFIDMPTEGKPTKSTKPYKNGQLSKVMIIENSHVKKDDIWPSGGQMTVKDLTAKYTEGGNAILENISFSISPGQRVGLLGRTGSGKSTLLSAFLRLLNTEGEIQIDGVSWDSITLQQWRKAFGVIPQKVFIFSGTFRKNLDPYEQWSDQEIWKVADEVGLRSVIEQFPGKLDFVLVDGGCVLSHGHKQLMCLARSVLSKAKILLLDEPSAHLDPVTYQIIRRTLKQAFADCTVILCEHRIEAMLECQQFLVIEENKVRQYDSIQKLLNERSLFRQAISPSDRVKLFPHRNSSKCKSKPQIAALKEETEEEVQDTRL
method notes: Ussing chamber assay of CFTR-mediated short-circuit currents, Assay C (0.026 μM to 25 μM, 6 concentrations)
Format: cell-based
run conditions: with 33 nM potentiator and 18 μM Tezacaftor, 20% human serum, read-out: C Max activity (%)
Procedure: Ussing chamber experiments were performed using human bronchial epithelial (HBE) cells derived from CF subjects heterozygous for F508del and a minimal function CFTR mutation (F508del/MF-HBE) and cultured as previously described (Neuberger T, Burton B, Clark H, Van Goor F Methods Mol Biol 2011:741:39-54). […] The activity of the CFTR corrector compounds on the CFTR-mediated ISC was determined in Ussing chamber studies as described above. […]

Cc1cccc(CC(C)C)c1-c1nc2nc(c1C)OC[C@@H](COC(C)C)N(Cc1cnc3cc(C4(C(F)(F)F)CC4)n(C)c3n1)C(=O)c1cccc(c1)S(=O)(=O)N2 (atropisomer, axis not shown; (P)) :: > 60%
Cc1cccc(CC(C)C)c1-c1nc2nc(c1C)OC[C@@H](C(C)C)N(Cc1cnc3cc(C(C)(C)C)n(C)c3n1)C(=O)c1cccc(c1)S(=O)(=O)N2 (atropisomer, axis not shown) :: > 60%

Now for another entry.
Ask: Please indicate Emax recorded for Cc1cccc(CC(C)C)c1-c1nc2nc(c1C)OC[C@@H](COC(F)(F)F)N(Cc1cnc3cc(C4CC4)n(C)c3n1)C(=O)c1cccc(c1)S(=O)(=O)N2
Reply: > 60%

The measurements presented in this section are drawn from patent US20250340574A1.
